B1: KLHL13 (parent)
chain: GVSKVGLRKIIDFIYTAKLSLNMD

Variants of: B1
assay.method.text: protein stability index of a GFP-peptide fusion (GPS, HEK-293T) (PSI 1-6); higher = more stable;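 further: lentivirally expressed fusions sorted by FACS into six bins by GFP to DsRed ratio, PSI derived from sequencing read proportions per bin multiplied by bin number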
condition.notes: c terminus: a fixed tail appended
Lab note: anything with protein stability index at or over 2 counts as class 1; the rest go in class 0.

variant.identifier | classification
R8P | class 0
K4L | class 0
I14G | class 1
M23R | class 1
T16G | class 1
I14L | class 1
V5M | class 1
D24Q | class 1
K18T | class 1
K4R | class 1
I11G | class 1
G6R | class 1
T16R | class 1
I10N | class 0
I11L | class 1
I10R | class 1
K4F | class 1
D24H | class 1
I11S | class 0
K18W | class 1
V2Y | class 1
M23G | class 1
K9S | class 1
F13D | class 0
R8E | class 0
D24M | class 1
D24P | class 1
L19Q | class 1
G1P | class 0
K18Y | class 1
F13R | class 0
Y15R | class 1
L7Q | class 1
K4H | class 1
L19T | class 1
K18N | class 1
S20Q | class 0
R8G | class 1
F13E | class 0
S3G | class 0
G1T | class 1
